Would you kindly list GI50 for each of these molecules?
System: HOP-92
Assay: NCI tumour cell line growth inhibition, 48 h
Calls of active or inactive are those of the source. Rule as the data show it: active = GI50 up to about 1.1 µM and inactive = higher.

Q: # lookup: GI50 of O=C1C=CC(O)(C#CCO)C=C1
Result: 2.59 µM (inactive)

Q: # lookup: GI50 of CC1(C)CCc2cc3c(cc2O1)OC(C)(C)C1c2c(ccc4c2CCC(C)(C)O4)OC31 (stereo not given)
Result: > 100 µM (inactive)

Q: # lookup: GI50 of Cc1cccc(NC(=O)/C=C/c2ccc(N(CCC#N)CCC#N)cc2C)c1
Result: > 100 µM (inactive)

Q: # lookup: GI50 of CCOC1=NC(C(F)(F)F)(C(F)(F)F)N=C(N2CCOCC2)O1
Result: > 100 µM (inactive)

Q: # lookup: GI50 of Cc1ccc2c(c1)Nc1ccccc1P2(=O)O
Result: > 100 µM (inactive)

Q: # lookup: GI50 of C=C1C(=O)OC2/C=C(/C)C3(O)OC(C)(CC(OC(=O)C(C)C)C12)CC3OC(C)=O (stereo not given)
Result: 13.3 µM (inactive)

Q: # lookup: GI50 of CCCCCCCC/C=C\CCCCCCCC(=O)O
Result: > 5 µM (inactive)

Q: # lookup: GI50 of CC1=C(C(=O)Nc2ccc([N+](=O)[O-])cc2)C(c2cccc([N+](=O)[O-])c2)C(C(=O)Nc2ccc([N+](=O)[O-])cc2)=C(C)N1
Result: 5.31 µM (inactive)

Q: # lookup: GI50 of C=C(C)C(=O)OC1C(C(C)CCCO)=C(CO)CC2OC(=O)C(=C)C21 (stereo not given)
Result: 16.7 µM (inactive)

Q: # lookup: GI50 of CCCCCCCCCCCC(=O)OCC1OC(n2cc(F)c(=O)[nH]c2=O)C(N)C(O)C1O (stereo not given)
Result: > 100 µM (inactive)

###

Would you kindly list GI50 for each of these compounds?
System: HL-60
Test: NCI tumour cell line growth inhibition, 48 h
The source made the active and inactive calls. Cut-off read from the data, not from the text of the source: active = GI50 up to about 1.1 µM and inactive = higher.

Q: # lookup: GI50 of CC(C)=CCC[C@@H](C)C1=C(N)C(=O)C(C)=C(O)C1=O
Result: 13 µM (inactive)

Q: # lookup: GI50 of O=C1NN=C2C=C(c3ccc(Cl)cc3)CC(c3cccc(Cl)c3)C12 (stereo unspecified)
Result: 21.2 µM (inactive)

Q: # lookup: GI50 of C/C(=N\N(C)C)C(CN1CCCCC1)C(c1ccccc1)c1c(O)c2ccccc2oc1=O (stereo unspecified)
Result: > 100 µM (inactive)

Q: # lookup: GI50 of CC1CN=C(Nc2ccc(F)c(Cl)c2)S1 (stereo unspecified)
Result: 29.9 µM (inactive)

Q: # lookup: GI50 of O=C1C=CC(O)(C#CCO)C=C1
Result: 3.17 µM (inactive)

Q: # lookup: GI50 of O=C1NN=C(c2ccc([N+](=O)[O-])cc2)C1n1nc(-c2ccccc2)c2ccccc2c1=O (stereo unspecified)
Result: > 45.6 µM (inactive)

Q: # lookup: GI50 of O=C(/C=C/c1ccc2c(c1)OCO2)Cc1nc2ccccc2[nH]c1=O
Result: 44.3 µM (inactive)

Q: # lookup: GI50 of CCOC(=O)NN1C(=O)C(=P(c2ccccc2)(c2ccccc2)c2ccccc2)C(C(=O)OC)=C1C
Result: > 100 µM (inactive)

Q: # lookup: GI50 of COc1ccc(C2=CC3CCC2C3)cc1 (stereo unspecified)
Result: 50 µM (inactive)

Q: # lookup: GI50 of CCOC(=O)c1cc(C(=O)c2ccccc2)n2nc(-c3ccc(Cl)cc3)ccc12
Result: > 100 µM (inactive)

Q: # lookup: GI50 of C1=CC(=NN=P(c2ccccc2)(c2ccccc2)c2ccccc2)C=C1
Result: 98.2 µM (inactive)
